- Assay summary: NCI Yeast Anticancer Drug Screen. Data for the bub3 strain (AID 167)
- Experimental conditions: S. cerevisiae bub3 mutant strain, at 50.0 µM (retest, dose inferred, filed as 5.0), active compounds read high
Compounds without any hit were thinned out: in the full panel of roughly 79,000, 15% have a hit. Where a SMILES comes first, the peptide text is derived from it. [ ]: non-standard residue; d: D form. Phe(4-Cl) = N[CH](Cc1ccc(Cl)cc1)C(=O)O; 3Pal = N[CH](Cc1cccnc1)C(=O)O
The following compounds are shown together with reported growth inhibition values.
Give the number; % is assumed, so skip it.

The cases that follow already have their growth inhibition on record.
• O=CCCCc1cc2c(cc1Br)CCC2 = 92
• Cc1ccc2[nH]c3c(c2c1)[n+]([O-])c1ccccc1[n+]3[O-] = -6
• C=CC1(c2ccc(-c3ccccc3)cc2)OCCO1 = -6

Fill in the blank: the reported growth inhibition of C[N+]1(C)CCCC(OCCCCCCCCCCCCCCOC2CCC[N+](C)(C)C2)C1 (configuration not stated) is ____. 94

Name the reported growth inhibition value associated with the compound Cc1ccc(NN(C)c2ccc(C)cc2)cc1 18

So what's the measured growth inhibition for this one? COc1ccc2c(Cc3ccc(O)cc3)cncc2c1O -4

Which growth inhibition is reported for this compound? COc1ccc2c(N3CCN(C(=O)C(Cl)(Cl)Cl)CC3)cc(C)nc2c1 7

growth inhibition for CCOc1ccccc1NC(=O)/C(Cl)=C(\Cl)C(=O)O ? 100

Which value of growth inhibition has been reported for C=C(CN(C)C)C(=O)c1ccccc1 in the records? 19

Looking for the measured growth inhibition of Cn1c(-c2ccc(/C=N/NC(=S)N/N=C/c3ccc(-c4c[n+]5ccsc5n4C)cc3)cc2)c[n+]2ccsc12 , can you help? 89

Please report the recorded growth inhibition for CCOC(=O)c1ccc(-c2cccs2)n1C . 1

Report growth inhibition for CC(=O)NC(Cc1ccc(Cl)cc1)C(=O)NC(Cc1ccc(Cl)cc1)C(=O)NC(Cc1cccnc1)C(=O)NC(CO)C(=O)NC(Cc1ccc(O)cc1)C(=O)NC(CCCN=C(N)N)C(=O)NC(CC(C)C)C(=O)NC(CCCN=C(N)N)C(=O)N1CCCC1C(=O)NC(C)C(=O)O (configuration not stated) (Ac-[Phe(4-Cl)][Phe(4-Cl)][3Pal]SYRLRPA-OH; configuration not given here) please. 8

Could you tell me which growth inhibition is on file for S=C1NCCNC(=S)SS1 ? 99

I would be grateful if you could share the reported growth inhibition for Cc1cc(N(CCOS(C)(=O)=O)CCOS(C)(=O)=O)ccc1C=Nc1ccccc1C(=O)O . 31

// returns reported growth inhibition for input O=C(O)C(=O)Cc1ccccc1[N+](=O)[O-] 10

growth inhibition lookup needed for COc1ccc(OC)c(/C=C2/C(=O)ON=C2C)c1 , thanks. 23

Returns the measured growth inhibition for the input compound. Input: O=C(OCc1ccccc1)c1ccc(O)cc1 91
